system: EKVX NSCLC; experiment: NCI-60 one-dose screen, 48 h; details: 10 µM unless noted
About 83,000 compounds went through this panel and 20% of them were active in at least one assay; those are over-represented in the sample as a whole. Activity calls are given as the source filed them. Rule for the calls: active = growth percent below 10; inactive = the rest.
Possible outcomes: active, inactive

[[record]]
molecule = "O=C1c2ccccc2C(=O)c2c1oc1ccc3ccccc3c21"
target_or_test_system = "EKVX NSCLC"
category = "inactive"

[[record]]
molecule = "Cc1ccc(NC(=O)Cn2nncc2CN2C(=O)CSC2=O)cc1C"
target_or_test_system = "EKVX NSCLC"
category = "inactive"

[[record]]
molecule = "COc1ccc(C2C3=C(COC3=O)N(CCO)c3cc(OC)c(OC)cc32)cc1 (stereo not given)"
target_or_test_system = "EKVX NSCLC"
category = "inactive"

[[record]]
molecule = "O=[N+]([O-])c1cc(F)c2cccnc2c1O"
target_or_test_system = "EKVX NSCLC"
category = "inactive"

[[record]]
molecule = "CNCc1cccc2c1OCCOCCOCCC(C)S(=O)(=O)c1ccc(cc1)-c1cnc(N)c(n1)C(=O)N2 (stereo not given)"
target_or_test_system = "EKVX NSCLC"
category = "inactive"

[[record]]
molecule = "O=C(NO)c1ccc(NCc2csc3ccccc23)cc1"
target_or_test_system = "EKVX NSCLC"
category = "inactive"

[[record]]
molecule = "CCOC(=O)c1ccc(N(CCC(=O)O)C(C)=O)cc1"
target_or_test_system = "EKVX NSCLC"
category = "inactive"

[[record]]
molecule = "COc1cc2nccc(Oc3ccc(NC(=O)C4(C(=O)Nc5ccc(F)cc5)CC4)cc3)c2cc1Oc1ccc(N)cn1"
target_or_test_system = "EKVX NSCLC"
category = "inactive"

[[record]]
molecule = "CNC(=O)c1cc(Oc2ccc(NC(=O)c3[nH]c(SC)nc3-c3ccc(F)cc3)cc2)ccn1"
target_or_test_system = "EKVX NSCLC"
category = "inactive"

[[record]]
molecule = "COc1ccc2[nH]c(C(=O)OCc3ccc4c(Br)cc(Br)c(O)c4n3)cc2c1"
target_or_test_system = "EKVX NSCLC"
category = "active"

